Just for reference, patent US20220380319A1 is where these values come from.

Please provide measured IC50 for the entries that follow.
target: acid ceramidase (Homo sapiens); construct: Cell lysates overexpressing acid ceramidase were used as the enzyme source; expressed in transfected cells; experiment: Acid ceramidase inhibition, biochemical fluorescent assay with cell lysates overexpressing acid ceramidase, substrate Rbm14-12; conditions: substrate Rbm14-12 6.3 μM, pH 4.5
Sequence (Q13510 22-395): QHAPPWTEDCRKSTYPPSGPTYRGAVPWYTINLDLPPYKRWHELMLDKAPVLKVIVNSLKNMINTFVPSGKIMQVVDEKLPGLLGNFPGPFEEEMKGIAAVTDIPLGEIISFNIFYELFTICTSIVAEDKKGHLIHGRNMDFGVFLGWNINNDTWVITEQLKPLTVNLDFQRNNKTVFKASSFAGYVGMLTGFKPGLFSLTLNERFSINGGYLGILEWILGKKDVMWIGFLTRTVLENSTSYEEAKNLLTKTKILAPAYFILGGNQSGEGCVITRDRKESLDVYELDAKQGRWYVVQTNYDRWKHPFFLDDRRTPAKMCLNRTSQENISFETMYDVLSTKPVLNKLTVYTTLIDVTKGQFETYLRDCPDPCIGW

For orientation, consider the following solved cases.
{"MOLECULE": "CN1CC2CC1CN2c1cccc2c1ncn2C(=O)NCCC1CCC(F)(F)C1 (stereo not drawn)", "MEASURED TARGET": "acid ceramidase (Homo sapiens)", "IC50": "200 to 1000 nM"}
{"MOLECULE": "O=C(NCCOc1ccccc1)n1cnc2c(N3CCN4CCCC4C3)cccc21 (stereo not drawn)", "MEASURED TARGET": "acid ceramidase (Homo sapiens)", "IC50": "< 200 nM"}
{"MOLECULE": "CN1CC(c2cccc3c2ncn3C(=O)NCCCc2ccccc2)C1", "MEASURED TARGET": "acid ceramidase (Homo sapiens)", "IC50": "< 200 nM"}
{"MOLECULE": "CC(C)CCNC(=O)n1cnc2c(N3CCN4CCOC[C@H]4C3)cccc21", "MEASURED TARGET": "acid ceramidase (Homo sapiens)", "IC50": "> 1000 nM"}
{"MOLECULE": "CC(C)CCNC(=O)n1cnc2c(N3CCN(C)C(=O)C3)cccc21", "MEASURED TARGET": "acid ceramidase (Homo sapiens)", "IC50": "200 to 1000 nM"}
{"MOLECULE": "CN(C)CC1CN(c2cccc3c2ncn3C(=O)NCCOc2ccccc2)C1", "MEASURED TARGET": "acid ceramidase (Homo sapiens)", "IC50": "< 200 nM"}
{"MOLECULE": "CN1CC2CC(C1)N2c1cccc2c1ncn2C(=O)NCCCc1ccccc1", "MEASURED TARGET": "acid ceramidase (Homo sapiens)", "IC50": "< 200 nM"}
{"MOLECULE": "CC(C)C#CCNC(=O)n1cnc2c(N3CCC4CN(C)CC4CC3)cccc21 (stereo not drawn)", "MEASURED TARGET": "acid ceramidase (Homo sapiens)", "IC50": "< 200 nM"}
{"MOLECULE": "CN1CCN(c2cccc3c2ncn3C(=O)NCCC2CCC(F)(F)C2)CC1 (stereo not drawn)", "MEASURED TARGET": "acid ceramidase (Homo sapiens)", "IC50": "< 200 nM"}
{"MOLECULE": "O=C(NCCc1ccccc1)n1cnc2c(N3CCN(C4COC4)CC3)cccc21", "MEASURED TARGET": "acid ceramidase (Homo sapiens)", "IC50": "< 200 nM"}

Value sought for every listed molecule: IC50.
1. CC(=O)N1CCN(c2cccc3c2ncn3C(=O)NCCCC(F)(F)F)CC1
2. CN1CC2CCC1CN2c1cccc2c1ncn2C(=O)NCCCc1ccccc1 (stereo not drawn)
3. CN1CC(N2CCN(c3cccc4c3ncn4C(=O)NCCc3ccccc3)CC2)C1

Result ::
< 200 nM
< 200 nM
< 200 nM

Value sought for every listed molecule: IC50.
1. CC(C)CCNC(=O)n1cnc2c(C3CCN(C)CC3)cccc21
2. O=C(NCCCc1ccccc1)n1cnc2c(N3CCC4(CC3)COC4)cccc21

Result ::
1: 200 to 1000 nM; 2: < 200 nM
